# targetOfAssay: Fibroblast growth factor receptor 1 (Homo sapiens, UniProt P11362)
# Sequence (P11362 whole entry, the tested form may be a part): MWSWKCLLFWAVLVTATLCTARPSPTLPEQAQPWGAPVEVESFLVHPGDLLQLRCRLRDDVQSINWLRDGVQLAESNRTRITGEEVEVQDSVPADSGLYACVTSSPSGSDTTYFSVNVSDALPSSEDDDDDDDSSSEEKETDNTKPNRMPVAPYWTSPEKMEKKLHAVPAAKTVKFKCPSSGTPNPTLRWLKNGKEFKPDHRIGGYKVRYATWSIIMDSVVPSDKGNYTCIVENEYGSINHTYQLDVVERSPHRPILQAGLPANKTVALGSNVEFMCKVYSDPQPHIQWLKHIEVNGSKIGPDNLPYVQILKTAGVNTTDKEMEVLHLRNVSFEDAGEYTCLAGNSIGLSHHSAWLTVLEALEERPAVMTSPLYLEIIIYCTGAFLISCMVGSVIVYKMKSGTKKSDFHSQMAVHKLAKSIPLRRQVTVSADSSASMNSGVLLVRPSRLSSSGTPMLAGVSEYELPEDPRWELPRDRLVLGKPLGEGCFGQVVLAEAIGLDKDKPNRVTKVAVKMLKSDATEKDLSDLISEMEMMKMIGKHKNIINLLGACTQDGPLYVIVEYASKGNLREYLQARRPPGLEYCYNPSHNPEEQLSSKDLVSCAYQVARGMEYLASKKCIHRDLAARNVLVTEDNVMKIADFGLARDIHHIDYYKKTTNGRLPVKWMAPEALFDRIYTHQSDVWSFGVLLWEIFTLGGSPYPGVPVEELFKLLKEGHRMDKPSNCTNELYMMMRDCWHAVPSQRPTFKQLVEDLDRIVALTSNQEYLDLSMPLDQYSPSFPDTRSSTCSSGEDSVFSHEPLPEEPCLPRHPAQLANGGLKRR
# assayText: Inhibition of recombinant human His-tagged FGFR1 cytoplasmic domain (308 to 731 residues) expressed in baculovirus expression system using Tyr 04 as substrate measured after 1 hr by Z'-LYTE assay
Quick list: IC50 per entry.

Inquiry: Observed IC50 on Fibroblast growth factor receptor 1 (Homo sapiens, UniProt P11362) for `CCOc1ccc(F)c(-c2ccc3cn[nH]c3c2)c1F` , please.
Reply text: > 100 µM

Inquiry: Quick one: `Clc1cncc(-c2ccc3cc[nH]c3c2)c1`
Reply text: > 500 µM

Further cases:
Inquiry: Requested read-out IC50, target or system Fibroblast growth factor receptor 1 (Homo sapiens, UniProt P11362), entry `CCOc1cccc(-c2ccc3cn[nH]c3c2)c1F`
Reply text: 9.7 µM
